tested on: MRC-5 (normal lung fibroblast); experiment: MTS cytotoxicity assay (CellTiter 96 AQueous One), compounds, 72 h; type: cell-based; conditions: Homo sapiens, MRC5, MRC-5 normal lung fibroblasts
*1 amine or outer side, *2 acyl side, *3 side chain or, on linkers, in order; H or OH if unused. Where a SMILES comes first, the peptide text is derived from it. [ ]: non-standard residue; d: D form. Pentanoyl(2-O,4-OH,5-Cl) = O=C(O)C(O)CC(O)CCl; NMeI = CC[CH](C)[CH](NC)C(=O)O; X1 = CC1CCN([*:1])C1C(=O)[*:2]; NMeA = CN[CH](C)C(=O)O; βAla = NCCC(=O)O
measure: pIC50
Lab note: report pIC50 as minus log10 of the concentration in molar units, number only.

stdin: Kindly state the measured pIC50 obtained for CCC(C)C1NC(=O)C2C(C)CCN2C(=O)C(CC(O)CCl)OC(=O)CCNC(=O)C(C)N(C)C(=O)C(C(C)CC)N(C)C1=O (stereo not drawn) [Compound 2, trichomide D] (cyclo([X1]I[NMeI][NMeA][βAla][Pentanoyl(2-O,4-OH,5-Cl)]); configuration not given here) with MRC-5 (normal lung fibroblast).
stdout: 5.92

Now for another entry.
stdin: Form field - read-out: pIC50; system: MRC-5 (normal lung fibroblast); submitted item: C=CCC1OC(=O)CCNC(=O)C(C)N(C)C(=O)C(C(C)CC)N(C)C(=O)C(C(C)CC)NC(=O)C2C(C)CCN2C1=O (stereo not drawn)
stdout: 4.82
